Just for reference, paper PMC1450329 is where these values come from.

assay-system: T1, MutS wild-type (Escherichia coli, UniProt P23909 1-853)
T1 sequence: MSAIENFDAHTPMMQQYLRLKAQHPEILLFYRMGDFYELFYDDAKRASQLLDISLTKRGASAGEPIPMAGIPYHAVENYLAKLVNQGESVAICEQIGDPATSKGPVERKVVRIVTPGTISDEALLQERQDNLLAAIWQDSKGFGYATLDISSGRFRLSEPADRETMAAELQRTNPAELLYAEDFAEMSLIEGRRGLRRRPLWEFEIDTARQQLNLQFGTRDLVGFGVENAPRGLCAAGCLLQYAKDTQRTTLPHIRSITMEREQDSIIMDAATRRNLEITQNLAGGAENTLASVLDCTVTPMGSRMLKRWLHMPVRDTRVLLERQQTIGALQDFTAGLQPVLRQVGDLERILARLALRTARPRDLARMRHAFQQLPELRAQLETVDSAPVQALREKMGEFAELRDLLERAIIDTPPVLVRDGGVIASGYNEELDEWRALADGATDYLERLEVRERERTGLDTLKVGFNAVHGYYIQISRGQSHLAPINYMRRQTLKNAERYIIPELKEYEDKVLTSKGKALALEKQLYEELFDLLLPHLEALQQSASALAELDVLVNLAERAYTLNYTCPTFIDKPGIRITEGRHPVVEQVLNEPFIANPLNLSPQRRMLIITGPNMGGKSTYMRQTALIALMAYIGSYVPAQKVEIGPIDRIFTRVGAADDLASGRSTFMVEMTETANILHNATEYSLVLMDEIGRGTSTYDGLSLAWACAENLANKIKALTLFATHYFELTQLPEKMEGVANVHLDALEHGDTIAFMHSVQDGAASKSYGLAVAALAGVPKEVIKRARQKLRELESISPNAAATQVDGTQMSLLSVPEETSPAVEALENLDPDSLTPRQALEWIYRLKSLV
run-description: fluorescence anisotropy
recorded-endpoint: Kd (nM)
Write it as a number; the unit nM goes unstated.

Per the records, this binder ( G/C homoduplex 30mer (dsDNA) DNA 1: ACCTGTCTGGCAACACTGTCACCGTCGTAT DNA 2: ATACGACGGTGACAGTGTTGCCAGACAGGT ) has Kd equal to 1080

Per the records, this binder ( CP-GpG/CC cisplatinated homoduplex 30mer (dsDNA, cisplatin 1,2-GpG intrastrand cross-link at G9-G10 of strand 1) DNA 1: ACCTGTCTGGCAACACTGTCACCGTCGTAT DNA 2: ATACGACGGTGACAGTGTTGCCAGACAGGT ) has Kd equal to 1340
